Measured inhibition of growth at 10 µM, listed per entry for reference.
system: OVCAR-4; assay: Growth inhibition of human OVCAR4 cells at 10^-5 M incubated for 48 hrs by sulforhodamine B assay; type: functional; settings: OVCAR-4, 48 h, read-out: GI
readout.name: inhibition of growth at 10 µM (%)

* O=C1Nc2c(sc3ccc(Cl)cc23)C(c2cccc(Br)c2)N1 (stereo not drawn) | -6.24
* O=[N+]([O-])c1cccc(C2NC(=S)Nc3c2sc2ccc(Cl)cc32)c1 (stereo not drawn) | 8.46
* CCOC(=O)CSC1=Nc2c(sc3ccc(Cl)cc23)C(c2cccc([N+](=O)[O-])c2)N1 (stereo not drawn) | -4.53
* O=C1/C(=C\c2cccc(Br)c2)Sc2ccc(Cl)cc21 | -9.77
* O=C1Nc2c(sc3ccc(Cl)cc23)C(c2ccc3ccccc3c2)N1 (stereo not drawn) | 3.19
* N#Cc1cnn(C2=Nc3c(sc4ccc(Cl)cc34)C(c3cccc([N+](=O)[O-])c3)N2)c1N (stereo not drawn) | -1.38
* O=C1/C(=C\c2cccc([N+](=O)[O-])c2)Sc2ccc(Cl)cc21 | 21.4
* S=C1Nc2c(sc3ccc(Cl)cc23)C(c2cccc(Br)c2)N1 (stereo not drawn) | 8.7

Values from ChEMBL document CHEMBL4414672
